Hi there, I'd appreciate the recorded log10 kinact/KI for every entry that follows.
# system tested: Recombinant rhinovirus 3C protease, serotype 14 (Human rhinovirus 14, UniProt P03303)
# Construct: Recombinant rhinovirus 3C proteases; made in house
# Sequence (P03303 1538-1719): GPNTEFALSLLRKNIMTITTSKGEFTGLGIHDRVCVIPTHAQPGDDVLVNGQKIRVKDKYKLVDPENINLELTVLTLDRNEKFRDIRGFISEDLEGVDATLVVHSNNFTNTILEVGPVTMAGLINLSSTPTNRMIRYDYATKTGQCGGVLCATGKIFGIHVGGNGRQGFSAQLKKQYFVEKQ
# run description: Inhibition of rhinovirus 3C protease (FRET assay, kobs/[I]), serotype 14
# Format: biochemical
# recorded conditions: pH 7.6; HRV-14; read-out: kobs/[I] (3C protease inhibition activity)
Could you please treat all values as log10 of kinact/KI in M⁻¹ s⁻¹?

Some solved cases for reference:
smiles text: CCOC(=O)/C=C/[C@H](CCC(N)=O)NC(=O)[C@H](Cc1ccccc1)n1cccc(NC(=O)C2SCCS2)c1=O
log10 kinact/KI: 5.05

smiles text: C#CC[C@@H](C(=O)N[C@H](/C=C/C(=O)O)C[C@@H]1CCNC1=O)n1cccc(NC(=O)c2cc(C)on2)c1=O
log10 kinact/KI: 2.58

smiles text: CCOC(=O)/C=C/[C@H](CCC(N)=O)NC(=O)[C@H](Cc1ccccc1)n1ccc(C)c(NC(=O)OCc2ccccc2)c1=O
log10 kinact/KI: 4.41

smiles text: Cc1cc(C(=O)Nc2cccn([C@@H](Cc3ccc(F)c(F)c3)C(=O)N[C@H](/C=C/C(=O)OC(C)(C)C)C[C@@H]3CCNC3=O)c2=O)no1
log10 kinact/KI: 5.54

smiles text: CCOC(=O)/C=C/[C@H](CCC(N)=O)NC(=O)[C@H](CC1CCCCC1)n1cccc(NC(=O)OCc2ccccc2)c1=O
log10 kinact/KI: 3.81

Respectfully, I request log10 kinact/KI for each entry included below.
1. CCOC(=O)/C=C/[C@H](CCC(N)=O)NC(=O)[C@H](Cc1ccccc1)n1cccc(NC(=O)c2cc(Cl)on2)c1=O
2. CCOC(=O)/C=C/[C@H](CCC(N)=O)NC(=O)Cn1cccc(NC(=O)OCc2ccccc2)c1=O

Found:
1: 5.13; 2: 2.54

Respectfully, I request log10 kinact/KI for each entry included below.
1. CCOC(=O)/C=C/[C@H](C[C@@H]1CCNC1=O)NC(=O)[C@@H]1CCc2c(Cl)cc(NC(=O)c3cc(C)on3)c(=O)n21
2. CC[C@@H](C(=O)N[C@H](/C=C/C(=O)OC1CCCC1)C[C@@H]1CCNC1=O)n1cccc(NC(=O)c2cc(Cl)on2)c1=O
3. CC[C@@H](C(=O)N[C@H](/C=C/C(=O)O)C[C@@H]1CCNC1=O)n1cccc(NC(=O)c2cc(C)on2)c1=O

Found:
[5.30, 5.17, 2.34]
